- Test method notes: soluble on expression in E. coli; label from the status in PepcDB or PDB records
Measurement type: soluble on expression in E. coli

{"Residue sequence": "GMSRTLVLFDIDGTLLKVESMNRRVLADALIEVYGTEGSTGSHDFSGKMDGAIIYEVLSNVGLERAEIADKFDKAKETYIALFRERARREDITLLEGVRELLDALSSRSDVLLGLLTGNFEASGRHKLKLPGIDHYFPFGAFADDALDRNELPHIALERARRMTGANYSPSQIVIIGDTEHDIRCARELDARSIAVATGNFTMEELARHKPGTLFKNFAETDEVLASILTPKHS", "Endpoint result": "soluble"}
{"Residue sequence": "KKAQLIVAGIGPGSPEDITPAVIQAVKNSDVVIGYKYYFQFIEPYLEPGTECIDTGMKREKARAEQAFELAEQGKTVCVISSGDAGIYGMAPLVYEMKRERGSRVEIEVLPGIS", "Endpoint result": "not soluble"}
{"Residue sequence": "MAHHHHHHMDYEEPGQATRELTTFVQGLLQNMQTRFQEMSDTIITRIDEMGTRIDDLEKNIAELMQQAGPDEEAAQTASAPKDKKKSKGK", "Endpoint result": "soluble"}
{"Residue sequence": "MSLGINGFTAHAQKLSLIYNTLDSRDMPTRGLYAKAAIEGSAEFLGSDASYRHYEAELKGYFPLKEARYITVARVAYNQTLGSDVPFLERSILGGESTLRGYGRNRFIDSSYFLCNLEERIRLFRWSVFDVNTDWEVAPFIDLGAVMESLDKTRSKNFEFNPGIGFRAVVRPNIVGRVDIGVGNDGPAVFVGLGYPFEGHHHHHH", "Endpoint result": "not soluble"}
{"Residue sequence": "MPSTLQGTFHTYRIIRRLGQGAFGEVSLAGVLETGEVVALKRIHIRNTGGIPDVVVREIKALQSVSHPNVVALLDVFPKGQAIYLVQEYCTTDLAALLRRLPAPPPERIAKGLMLQLCRGLEALHAEGIMHRDVKPSNTLLSAASGTAKLADCGLARPLDGGERPAYTHAVATRWYRAPELLYGARAYGPAVDVWALGLVFAELLGLSPLVPGDNDIDQLGRVIATFGSMEPVWLGVRALPDWGKIAFPHCEPLPLGDLLPGAPAAALEFLAAFLRYDPAKRITAACAVRSTYLTATQPL", "Endpoint result": "not soluble"}
{"Residue sequence": "MGSDKIHHHHHHMATIEILGFPHAYELTAPTSYPDALVFIHGWLNSRGYWQPVTSRLSVDFQCLSYDLRGFGESQSQLETDFHRGSSSASLSAQSLQEINLSFDSLYTPAAYAQDLAALLEQLNITSAWLVGHSLGGTIALWAAAQIPQRIKGVICINAGGGIYLKEAFEQFRMAGQRFLQVRPRWLSQLPLIDLLFTRASVSRPLDRQWARQRVIDFVVADPEAALGALLDSTTEDEVNRLPKLVSQLKQPVYFLAGTDDKVMEPKYVRHLASFHPLFQYCGDNVIEIPDCGHLAMLEQPDAVASHIKSLVIGHG", "Endpoint result": "not soluble"}
{"Residue sequence": "MGSDKIHHHHHHMVTGASGFVGSALCCELARTGYAVIAVVRRVVERIPSVTYIEADLTDPATFAGEFPTVDCIIHLAGRAHILTDKVADPLAAFREVNRDATVRLATRALEAGVKRFVFVSSIGVNGNSTRQQAFNEDSPAGPHAPYAISKYEAEQELGTLLRGKGMELVVVRPPLIYANDAPGNFGRLLKLVASGLPLPLDGVRNARSLVSRRNIVGFLSLCAEHPDAAGELFLVADGEDVSIAQMIEALSRGMGRRPALFTFPAVLLKLVMCLLGKASMHEQLCGSLQVDASKARRLLGWVPVETIGAGLQAAGREYILRQRERRK", "Endpoint result": "not soluble"}
{"Residue sequence": "MSLTISTQCSKCEKIYDDNKRKICSGKCGHSICESCFDRKSSDICSICNQIDSFGVKCINRSAMEMVEMKKNAFSFSDIWIFKFDPKEHFNGPCSKCNDYSTMLRVCTNSAVQAGLLVKTGENSFDLTPHTTDELLETIILRIKSIGICADCVINNGLKEDVVMMKNIKRLYDIAKALNYLSMFSFSMKQIEREIEEFKNKKNQLRFYNMYYHFVKETYPEIMKWLKNDLVRISAPPCWQVLLKIVSIMTQAAQSLFLKSAERELQISKEKLRDSKGNSEWQKTVDKLENFRDFLEINHVDAEIQPIDMWNFFVLCTTEELDKVTAIINRNLKIQGKSSRETLKEVYYLTRDVRKTLPFQIPERFAGFIDRFIRVLVGENLDEEQALEIQSTT", "Endpoint result": "not soluble"}
{"Residue sequence": "MGSDKIHHHHHHMIEQELTYQDLRIPSSEIYEAMGYKDSIPDQMVIDETNTLLKRVIPLLRPRFAFFFMEGTLDIEKETLSVQSIHPPTVNPIQDTIPTRSPEQNTFSTQSKSTVFSVGKTIARQLRGSEAFVFFAATAGTEFEVFQHTLQQEEDMVKIYIADSLGSIIAEKTADCMEVALAEYIREKNWKHTNRYSPGYCGWHVSEQQKLFPLFPIAAPCGIRLTDSSLMVPIKSVSGVIGTGTNVRKLEYTCGLCTYENCYRKRKHR", "Endpoint result": "not soluble"}
{"Residue sequence": "MENFAVIDLGSNSCRMTITQIQEDGSYAVTHRLKEMVRLSENENATDTPTLQAEAIDRTIAALKSFAAVYKDLPNLTIKAVATAATRKASNQKKFLKRVKNDVGLDIEVIPGTTEAYYDYLGVVNTLPTTNCVMVDTGGGSCELVLIVNGQAKDLISLPIGAVSLSEKFGLNDQVTASQLFKTMTFVDKIFNSVWWLRNGLNLPLVCLGGSNRTLAKINRRKCNILNFEDIHGYRLRDNAIYDTFNTVISQDAAGRAAIPGLAKDRADIIVGGMIPAISLMRFLDSDRMIFSQNGLREGILFEHLTALAEQSAKVSELEHHHHHH", "Endpoint result": "not soluble"}
{"Residue sequence": "MSRRGLEREGGKPVSSDAKGLKRVDVRLKWDPSPWDRPPHHLDIIATTYAADAPHGRPVYVVQFDKRSPDGTINMSRHSRTGQGFGFVEEMTFELDRLSPSIARVIVGVAIHQDNGHKTFDDVSNTGVVVAEGYRELLTDGFERVAGATAATVAEFTRNASGAWEFREAVRGFDSDPVLFATEMGSAPRP", "Endpoint result": "soluble"}
